The following compounds are shown together with reported IC50 values.
# target.entity: human integrin αVβ6 (Homo sapiens, UniProt P06756+P18564)
# Sequence (P06756 31-992 limits assumed): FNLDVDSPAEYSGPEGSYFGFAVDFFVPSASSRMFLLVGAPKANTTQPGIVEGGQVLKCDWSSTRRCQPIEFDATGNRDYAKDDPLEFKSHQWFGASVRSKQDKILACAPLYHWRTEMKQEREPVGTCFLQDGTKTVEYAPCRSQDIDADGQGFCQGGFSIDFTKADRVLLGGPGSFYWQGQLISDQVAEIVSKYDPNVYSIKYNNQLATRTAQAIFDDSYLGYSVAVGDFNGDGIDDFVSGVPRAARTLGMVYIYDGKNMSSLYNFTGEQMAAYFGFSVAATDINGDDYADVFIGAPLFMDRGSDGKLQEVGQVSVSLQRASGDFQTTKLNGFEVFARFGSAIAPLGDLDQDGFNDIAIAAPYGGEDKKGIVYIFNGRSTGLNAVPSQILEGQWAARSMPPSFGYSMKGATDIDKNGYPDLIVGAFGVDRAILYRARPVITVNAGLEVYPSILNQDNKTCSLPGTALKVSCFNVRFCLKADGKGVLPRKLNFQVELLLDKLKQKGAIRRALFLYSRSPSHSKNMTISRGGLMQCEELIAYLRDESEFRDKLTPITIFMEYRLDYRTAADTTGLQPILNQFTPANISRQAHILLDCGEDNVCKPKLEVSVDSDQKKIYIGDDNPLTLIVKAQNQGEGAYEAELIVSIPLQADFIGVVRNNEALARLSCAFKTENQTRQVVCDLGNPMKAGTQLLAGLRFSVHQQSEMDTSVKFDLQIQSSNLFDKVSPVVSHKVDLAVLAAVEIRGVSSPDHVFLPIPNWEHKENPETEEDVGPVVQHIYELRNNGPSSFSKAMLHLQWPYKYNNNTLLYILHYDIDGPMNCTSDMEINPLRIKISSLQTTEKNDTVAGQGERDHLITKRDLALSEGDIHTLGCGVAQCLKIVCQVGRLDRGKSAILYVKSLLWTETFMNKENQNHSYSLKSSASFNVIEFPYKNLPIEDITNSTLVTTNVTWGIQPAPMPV
# Sequence (P18564 22-707 limits assumed): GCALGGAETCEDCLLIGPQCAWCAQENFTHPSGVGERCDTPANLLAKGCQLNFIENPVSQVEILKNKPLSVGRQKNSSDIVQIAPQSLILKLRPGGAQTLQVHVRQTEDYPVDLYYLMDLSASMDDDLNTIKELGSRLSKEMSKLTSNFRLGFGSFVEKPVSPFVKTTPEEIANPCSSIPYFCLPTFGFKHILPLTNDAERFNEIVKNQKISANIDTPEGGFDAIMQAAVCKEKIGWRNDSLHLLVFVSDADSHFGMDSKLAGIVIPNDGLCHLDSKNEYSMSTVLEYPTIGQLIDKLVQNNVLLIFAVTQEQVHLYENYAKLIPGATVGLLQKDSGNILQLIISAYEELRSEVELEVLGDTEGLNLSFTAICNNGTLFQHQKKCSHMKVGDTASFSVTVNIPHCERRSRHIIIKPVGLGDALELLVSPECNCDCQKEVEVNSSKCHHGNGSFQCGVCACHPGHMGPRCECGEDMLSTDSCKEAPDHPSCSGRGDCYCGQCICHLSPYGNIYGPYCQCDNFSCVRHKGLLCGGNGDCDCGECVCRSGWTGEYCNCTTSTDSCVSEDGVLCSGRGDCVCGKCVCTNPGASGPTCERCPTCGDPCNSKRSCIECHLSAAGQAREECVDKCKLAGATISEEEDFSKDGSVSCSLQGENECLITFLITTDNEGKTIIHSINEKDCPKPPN
# assay.method.text: AlphaScreen proximity-based integrin binding assay with TGF-b1 LAP
# assay.conditions: values given as ranges

Previously resolved entries follow.
- compound: "N#Cc1ccccc1C1(C(=O)N[C@@H](CCOCCCCc2ccc3c(n2)NCCC3)C(=O)O)CC1 [Compound 45]"
  target.entity: "human integrin αVβ6 (Homo sapiens, UniProt P06756+P18564)"
  result: "≥ 500 nM"
- compound: "O=C(O)[C@H](CCOCCCCc1ccc2c(n1)NCCC2)NC(=O)C1(c2ncccc2C(F)(F)F)CC1 [Compound 25]"
  target.entity: "human integrin αVβ6 (Homo sapiens, UniProt P06756+P18564)"
  result: "≥ 500 nM"
- compound: "O=C(O)[C@H](CCOCCCCc1ccc2c(n1)NCCC2)NC(=O)C1(c2cccc(Cl)c2)CCOCC1 [Compound 89]"
  target.entity: "human integrin αVβ6 (Homo sapiens, UniProt P06756+P18564)"
  result: "> 500 nM"
- compound: "COc1cccc(C#N)c1C1(C(=O)N[C@@H](CCOCCCCc2ccc3c(n2)NCCC3)C(=O)O)CC1 [Compound 56]"
  target.entity: "human integrin αVβ6 (Homo sapiens, UniProt P06756+P18564)"
  result: "≥ 500 nM"

Suppose we examine the compound Cc1ccccc1C1(C(=O)N[C@@H](CCOCCCCc2ccc3c(n2)NCCC3)C(=O)O)CC1 [Compound 17] ; what IC50 value has been reported?
≥ 500 nM

Suppose we examine the compound COc1cccc(C2(C(=O)N[C@@H](CCOCCCCc3ccc4c(n3)NCCC4)C(=O)O)CCOCC2)c1 [Compound 87] ; what IC50 value has been reported?
> 500 nM

Suppose we examine the compound CC(C)(C(=O)N[C@@H](CCOCCCCc1ccc2c(n1)NCCC2)C(=O)O)c1c(F)cccc1OC(F)F [Compound 5] ; what IC50 value has been reported?
≥ 500 nM

Suppose we examine the compound Cc1ncc(F)cc1C1(C(=O)N[C@@H](CCOCCCCc2ccc3c(n2)NCCC3)C(=O)O)CC1 [Compound 28] ; what IC50 value has been reported?
≥ 500 nM

Suppose we examine the compound Cc1cncc(F)c1C1(C(=O)N[C@@H](CCOCCCCc2ccc3c(n2)NCCC3)C(=O)O)CC1 [Compound 47] ; what IC50 value has been reported?
250 to 500 nM

Suppose we examine the compound O=C(O)[C@H](CCOCCCCc1ccc2c(n1)NCCC2)NC(=O)C1(c2c(Cl)cccc2Cl)CC1 [Compound 7] ; what IC50 value has been reported?
≥ 500 nM

Suppose we examine the compound O=C(O)[C@H](CCOCCCCc1ccc2c(n1)NCCC2)NC(=O)C1(c2ncccc2CF)CC1 [Compound 52] ; what IC50 value has been reported?
≥ 500 nM

Suppose we examine the compound O=C(O)[C@H](CCOCCCCc1ccc2c(n1)NCCC2)NC(=O)C1(c2[nH]c(=O)ccc2Cl)CC1 [Compound 66] ; what IC50 value has been reported?
≥ 500 nM

Suppose we examine the compound COc1ncc(F)cc1C1(C(=O)N[C@@H](CCOCCCCc2ccc3c(n2)NCCC3)C(=O)O)CC1 [Compound 33] ; what IC50 value has been reported?
≥ 500 nM

Suppose we examine the compound CC(C)(C(=O)N[C@@H](CCOCCCCc1ccc2c(n1)NCCC2)C(=O)O)c1ccccc1 [Compound 2] ; what IC50 value has been reported?
≥ 500 nM

Suppose we examine the compound Cc1cccnc1C1(C(=O)N[C@@H](CCOCCCCc2ccc3c(n2)NCCC3)C(=O)O)CC1 [Compound 29] ; what IC50 value has been reported?
≥ 500 nM
